Target: T1, Human OSCAR (osteoclast-associated receptor), full length, on cells (human)
T1 construct: The signal peptide limits cannot be read from the text; also called hOSCAR; HEK-OSCAR cells
T1 chain: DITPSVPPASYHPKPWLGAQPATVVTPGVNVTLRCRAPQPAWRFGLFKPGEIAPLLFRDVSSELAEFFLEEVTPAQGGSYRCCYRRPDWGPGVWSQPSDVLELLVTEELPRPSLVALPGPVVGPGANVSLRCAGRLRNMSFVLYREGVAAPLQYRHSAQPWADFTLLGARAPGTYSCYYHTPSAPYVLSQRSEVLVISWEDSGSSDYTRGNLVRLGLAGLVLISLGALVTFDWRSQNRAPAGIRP
Experiment: flow cytometry on primary human monocytes, donor #1
API: label(entry) gives 1 if the entry's EC50 is strictly smaller than 2 nM; on equality or larger values it gives -1.

{"columns": ["binder", "category"],
 "data": [
  ["7F6A1 (antibody, V domains shown, Mouse anti-human OSCAR mAb; The heavy chain entry covers only VH-CH1 and the start of the hinge) VH: DVKLVESGGGLVKPGGSLKLSCAASGFTFSSYVMSWVRQTPEKRLEWVATISSGGSYTYYPDSVKGRFTISRDNAKNTLYLQMSSLKSEDTAMYYCTREGGNSPDYWGQGTTLTVSS VL: ENVLTQSPAIMSASPGEKVTMTCSVSSSISYMHWYRQKSFTSPQLWIYDTSKLASGVPGRFSGSGSGISYSLTISSMEAEDVATYYCFQGSEYPLTFGAGTKLELKR", -1],
  ["7F21A1 (antibody, V domains shown, Mouse anti-human OSCAR mAb; The heavy chain entry covers only VH-CH1 and the start of the hinge) VH: QVQLQQSGAELVRPGTSVKVSCRSSGYAFTNYLIEWIKQRPGQGLEWIGVITPGSGGTNYNENFKDKATLTADKSSNTAYMQLTSLTSDDSAVYFCARSFDYDGAWFAYWGQGTLVTVSA VL: DIQMTQSPASLSVSVGETVTITCRASEKIYSNLAWYQQKQGKSPQLLVYAATNLADGVPSRFSGSGSGTQFSLKINNLQSEDFGSYYCQHFWGTPWTFGGGTKLEIKR", -1],
  ["7F1A1 (antibody, V domains shown, Mouse anti-human OSCAR mAb; The heavy chain entry covers only VH-CH1 and the start of the hinge) VH: QVQLQQSGAELVRPGTSVKVSCKASGYAFTNYMIEWVKKRPGQGLEWIGVINPGSGGTNYNEKFENKATLTADKSSSTAYMQLSSLTSDDSAVYFCARSLDFDGAWFAYWGQGTLVTVSA VL: DIQMTQSPASLSVSVGETVTITCRASEKIYSNLAWYQQKQGKSPQLLVYAATNLADGVPSRFSGSGSGTQFSLKINSLQPEDFGSYYCQHFWGIPWTFGGGTKLEIKR", 1],
  ["7F14A1 (antibody, V domains shown, Mouse anti-human OSCAR mAb; also called 7F14A4) VH: QVQLKESGPGLVAPSQSLSITCSVSGFSLTSYGVHWVRQPPGKGLEWLGVMWAGGSTNYNSALMSRLSISKDNSKSQVFLKMNSLQTDDSAMYYCALQKGYGNYFDYWGQGTTLTVSS VL: QIVLTQSPAIMSASPGEKVTMTCSASSSVNYMHWYQQKSGTSPKRWIYDTSNLASGVPTRFSGSGSGTSYSLTISSMEAEDAATYYCQQWSSDPLTFGAGTKLELKR", -1],
  ["3F7A9 (antibody, V domains shown, Mouse anti-human OSCAR mAb (its isotype control is mIgG1); The heavy chain entry covers only VH-CH1 and the start of the hinge; also called 3F7A9-1) VH: EIQLQQSGPELVKPGASVKVSCKASGYVFTSYNMYWVKQSHGKSLEWIGYIDPYNGGTRYNQKFKGKATLTVDKSSSTAYMHLNSLTSEDSAVYYCARLDYYGNFYWGQGTTLTVSS VL: DIKMTQSPSSMYASLGERVTITCKASQDINSFLSWLQQKPGKSPKTLIYRANRLVDGVPSRFSGSGSGQDYSLTISSLEYEDMGIYYCLQYDDFPYTFGGGTKLEIKR", 1]
]}

Just for reference, patent US20140056918A1 is where these values come from.
